# test_description: In vitro metabolism in human liver microsomes
# Type: in vitro ADME
# run_parameters: predicted hepatic extraction ratio, human liver microsomes
Please assign N whenever predicted Eh (H) is at or above 0.4, and Y whenever it is below.

Threshold test, predicted Eh (H) < 0.4: Cc1nc(NC2CCc3cc(Cl)ccc3C2)c2c(C)noc2n1 (stereo not drawn)
N

Threshold test, predicted Eh (H) < 0.4: Cc1nc(Nc2ccc(C(F)(F)F)cc2)c2c(C(F)(F)F)noc2n1
Y

Threshold test, predicted Eh (H) < 0.4: Cc1nc(NC2CCc3ccc(Br)cc3C2)c2c(C)noc2n1 (stereo not drawn)
N

Threshold test, predicted Eh (H) < 0.4: Cc1nc(Nc2ccc(S(F)(F)(F)(F)F)cc2)c2c(C)noc2n1
N

Threshold test, predicted Eh (H) < 0.4: Cc1nc(NC2Cc3cc(F)c(F)cc3C2)c2c(C(F)(F)F)noc2n1
N

Threshold test, predicted Eh (H) < 0.4: Cc1nc(NC2CCc3ccc(Cl)cc3C2)c2c(C)noc2n1 (stereo not drawn)
N

Threshold test, predicted Eh (H) < 0.4: Cc1nc(Nc2ccc(S(F)(F)(F)(F)F)cc2)c2c(C(F)(F)F)noc2n1
Y

Threshold test, predicted Eh (H) < 0.4: Cc1nc(Nc2ccc(C(F)(F)F)nc2)c2c(C)noc2n1
Y

From: paper PMC6120730
